For each of the molecules below, state its activation.
- method: MITF-driven TRPM1 luciferase induction in melanoma cells – cell-based, SK-MEL-5, single point, primary screen (AID 588334);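 also: 0% = neutral control wells and 100% = parthenolide positive control wells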
- test.parameters: SK-MEL-5 TRPM1-promoter luciferase, 24 h; at 12.5 µM; stronger effect = higher value; % of positive control, neutral wells = 0
Screen size: about 300,000 compounds; about 2,300 (0.77%) were called active. This excerpt belongs to a sample that is enriched for actives. Where a SMILES comes first, the peptide text is derived from it. [ ]: non-standard residue; d: D form. ξ: configuration not given here. Ac5c = NC1(C(=O)O)CCCC1; ξS = NC(CO)C(=O)O
One number for each entry, in %.

Field: example entries. Status: answers known.
> print(dat)
                                   molecule  measured.endpoint  reported.value
1     COc1ccccc1OCc1ccc(C(=O)N2CCN(C)CC2)o1         activation             1.8
2   COc1ccc(-c2noc(-c3cccc(OC)c3OC)n2)cc1OC         activation            88.3
3  CCCCNC(=O)C(C)N(CCN(C)C)C(=O)CCCCCN1C(=O)NC(c2ccc(Cl)cc2)C(C(=O)OCc2ccccc2)=C1C (configuration not stated)         activation           -93.7
4         Cc1ccccc1OCC(=O)Nc1ccc2c(c1)ncn2C         activation             152
5  CCNC(=O)N(CC)C[C@H]1N[C@@](CC)(C(=O)OC)[C@H]2C(=O)N(Cc3ccccc3)C(=O)[C@@H]12         activation           0.033

// input: 2 molecules below; output: activation for each
1. COc1cc(OC)cc(-c2cc3ccc(F)cc3cn2)c1
2. O=S(=O)(O)c1cc2onnc2c2ccccc12

// result
[111, -3.61]

// input: 3 molecules below; output: activation for each
1. COc1ccc(-c2cc3ncccc3cn2)cc1
2. COc1ccc(/C=N/Nc2nc3ccccc3o2)cc1OC
3. Cc1ccc(NC(=O)COc2ccc(/C=N\NC(=O)c3cccnc3)cc2)cc1C

// result
1: 72; 2: 56.1; 3: 13.6

// input: 3 molecules below; output: activation for each
1. Fc1ccc2cnc(-c3ccccc3)cc2c1
2. Cc1ccccc1OCC(=O)Nc1ccc(N2CCN(C(=O)C(C)C)CC2)c(Cl)c1
3. COc1ccc2nc(N3CCN(C(=O)c4ccc([N+](=O)[O-])o4)CC3)sc2c1

// result
63.9
-59.2
-66.4

// input: 5 molecules below; output: activation for each
1. CCOC(=O)C(CO)NC(=O)C1(NC(C)=O)CCCC1 (configuration not stated) (Ac-[Ac5c]-[ξS]-OEt)
2. S=C(c1ccc(-c2ccccc2)o1)N1CCCCC1
3. CC(=O)OCC1(O)CC23CCC4c5ccoc5CCC4(C)C2CCC1C3 (configuration not stated)
4. C/C(=C\C(=O)c1cccnc1)Nc1ccc(C)c(C)c1
5. C=CC(=O)Nc1ccc(Nc2ccnc(Nc3ccc(N4CCN(C)CC4)cc3)n2)cc1

// result
1: 14.3; 2: 99.8; 3: -8.62; 4: 104; 5: -13.2

// input: 4 molecules below; output: activation for each
1. Cc1ccc(N/C=C/C(=O)c2ccccc2)cc1C
2. C[C@]12c3[nH]c4ccc(Cl)cc4c3CCN1C(=O)[C@@H](CC(=O)NCCCn1ccnc1)C[C@@H]2C(=O)N1CCOCC1
3. CC(C)(C)OC(=O)N1CCC(C(=O)Nc2cccc(C(=O)NCCc3ccccc3)c2)CC1
4. CCCN(C(=O)CSc1nnc(N)s1)c1c(N)n(Cc2ccccc2)c(=O)[nH]c1=O

// result
[-1.56, 13.5, 0.242, -11.7]
